// logP lookup, one value per entry
# methodNotes: Measurement of log P values by HPLC on reversed phase columns (methods [a] pH 2.3, [b] pH 2.7, [c] pH 7.8)
# Type: physicochemical
# testConditions: HPLC on reversed phase columns, method [b], pH 2.7
# Protocol: Measurement of log P-Values: Measurement of log P Values was Performed According EEC Directive 79/831 Annex V.A8 by HPLC (High Performance Liquid Chromatography) on reversed phase columns with the following methods: ^[a] […]

// known answers, use as guide
compound="N#Cc1ccccc1C(=O)N[C@@H]1CCC[C@@H]1c1ccc(F)c(F)c1 (relative stereo)" measurement=3.04^[b]
compound="Cc1nnsc1C(=O)N[C@@H]1CCC[C@H]1c1ccc(F)c(F)c1 (relative stereo)" measurement=2.92^[b]
compound="CCOc1nn(C)cc1C(=O)N[C@@H]1C[C@H]1c1ccccc1 (relative stereo)" measurement=2.36^[b]
compound="O=C(N[C@@H]1CCC[C@@H]1c1ccc(F)c(F)c1)C1=C(C(F)(F)F)OCCS1 (relative stereo)" measurement=3.19^[b]
compound="Cc1nc(C(F)(F)F)c(C(=O)NC2CC2c2ccc(Cl)cc2)s1 (centres unmarked)" measurement=4.35^[b]

**Query** # get_value(readout='logP', item= Cc1nn(C)c(F)c1C(=O)NC1CC1c1ccc(Cl)cc1 (centres unmarked) )
**Result** 3.04^[b]

**Query** # get_value(readout='logP', item= O=C(NC1CC1c1ccccc1Cl)c1ccccc1Br (centres unmarked) )
**Result** 3.19^[b]
